assayed-target: T1, human CD98, endogenously expressed on Molt-4 human acute lymphoblastic leukemia cells (human)
T1 chain: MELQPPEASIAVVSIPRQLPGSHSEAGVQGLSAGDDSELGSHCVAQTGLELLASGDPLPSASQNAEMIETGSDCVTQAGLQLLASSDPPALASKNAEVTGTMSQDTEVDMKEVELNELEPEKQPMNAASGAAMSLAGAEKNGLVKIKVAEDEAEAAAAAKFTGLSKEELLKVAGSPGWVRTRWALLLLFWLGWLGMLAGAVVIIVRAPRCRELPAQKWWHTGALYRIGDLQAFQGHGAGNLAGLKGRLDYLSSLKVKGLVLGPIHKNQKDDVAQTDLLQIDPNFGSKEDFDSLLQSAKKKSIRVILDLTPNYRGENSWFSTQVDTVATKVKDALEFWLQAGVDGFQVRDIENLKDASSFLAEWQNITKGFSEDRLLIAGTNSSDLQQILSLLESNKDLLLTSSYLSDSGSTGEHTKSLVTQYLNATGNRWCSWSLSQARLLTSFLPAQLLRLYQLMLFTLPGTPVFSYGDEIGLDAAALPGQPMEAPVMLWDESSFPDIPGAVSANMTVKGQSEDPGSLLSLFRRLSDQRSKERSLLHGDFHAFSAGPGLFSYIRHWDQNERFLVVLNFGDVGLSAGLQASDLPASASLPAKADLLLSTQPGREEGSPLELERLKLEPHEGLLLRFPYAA
test: cell-based or functional assay
Molt4 IC50 below 0.05 nM gives Not fulfilled; Molt4 IC50 at or above it gives Fulfilled.

# example entries with known answers
# binder, class-name
rows = [
    ("CD98 (CL-huAb110)-TX (antibody, human IgG1, kappa, L234A L235A, V domains shown, synthon TX on reduced interchain cysteines (sites not given)) VH: EVQLVQSGAEVKKPGASVKVSCKASGFTFSDYTMAWVRQAPGQGLEWVATIIYDARGTYYRDAVKGRFTITRDNSTSTLYLELSSLRSEDTAVYYCARQSDDTYYYWGYFDYWGQGTMVTVSS VL: DIVMTQTPLSLPVTPGEPASINCKSSQSLLFSGNQKNYLAWYLQKPGQSPQLLIYWASTRQSGVPDRFSGSGSGTDFTLKISRVEAEDVGIYYCQQYYSSPYTFGQGTKLEIKR", "Fulfilled"),
    ("CD98 (CL-huAb102)-AAD (antibody, human IgG1, kappa, L234A L235A, V domains shown, synthon AAD on reduced interchain cysteines (sites not given)) VH: EVQLVESGGGLVQPGGSLRLSCATSGFTFIDYYMSWVRQAPGKGLEWLGFIRNKANRYTTEYSASVKGRFTISRDNSKSILYLQMNSLKTEDTAVYYCTRDRPAWFVYWGQGTLVTVSS VL: DIVMTQTPLSLPVTPGEPASISCKSSQSLLYSSNQKNYLAWYLQKPGQSPQLLIYWASTRESGVPDRFSGSGSGTDFTLKISRVEAEDVGVYYCQQYYSYPYTFGGGTKVEIKR", "Not fulfilled"),
    ("CD98 (CL-huAb110)-WD (antibody, human IgG1, kappa, L234A L235A, V domains shown, synthon WD on reduced interchain cysteines (sites not given)) VH: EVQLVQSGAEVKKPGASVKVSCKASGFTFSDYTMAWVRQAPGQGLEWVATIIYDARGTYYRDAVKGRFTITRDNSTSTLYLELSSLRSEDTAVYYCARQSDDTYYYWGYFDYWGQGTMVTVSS VL: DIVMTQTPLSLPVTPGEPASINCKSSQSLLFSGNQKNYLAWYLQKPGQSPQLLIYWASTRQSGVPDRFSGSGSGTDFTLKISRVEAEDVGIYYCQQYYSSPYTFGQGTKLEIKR", "Fulfilled"),
]

Next:
stdin: Reported Molt4 IC50 at or above 0.05 nM? CD98 (CL-huAb108)-TX (antibody, human IgG1, kappa, L234A L235A, V domains shown, synthon TX on reduced interchain cysteines (sites not given)) VH: EVQLVQSGAEVKKPGASVKVSCKASGFTFSDYTMAWVRQAPGQGLEWVATIIYSGRGTYYRDAVKGRFTITRDNSTSTLYLELSSLRSEDTAVYYCARQSDDTYYYWGYFDYWGQGTMVTVSS VL: DIVMTQTPLSLPVTPGEPASINCKSSQSLLFSGNQKNYLAWYLQKPGQSPQLLIYWASTRQSGVPDRFSGSGSGTDFTLKISRVEAEDVGIYYCQQYYDVPYTFGQGTKLEIKR
stdout: Fulfilled
